target_of_assay: DRB1*07:01
conditions: modification not given
observation_type: IC50 (µM)
Answer format: numeric, µM implied, no suffix.

Query string: Which IC50 is listed for NVVIKVCEFQFCNDP [… (position 125)] ?
Result string: 6.61
